System: Saccharomyces cerevisiae
PROCEDURE TEXT: protein stability index of tFT-peptide fusion (C-terminal peptide) (PSI (0-1 scale)); higher = more stable (slower turnover);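 note: PSI is a weighted mean of sequencing reads over stability bins, variants kept only with over 10 reads, mCherry proximal and sfGFP distal, peptide attached via GGGS linker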
STUDY CONDITIONS: genetic background: wild type; temperature: 30 C
MEASUREMENT KIND: protein stability index

polymer_sequence=PLTSPLLFPVFA meas_value=0.267
polymer_sequence=AELLMLRIFFLF meas_value=0.0708
polymer_sequence=SRLMLPLSPLVC meas_value=0.313
polymer_sequence=WLCLGLVVGLFL meas_value=0.362
polymer_sequence=WLCWVVWFPGLF meas_value=0.171
polymer_sequence=GFFLLSFLFFVR meas_value=0.195
polymer_sequence=PCLPLTPMWTLF meas_value=0.42
polymer_sequence=VCVAVCFVMCGG meas_value=0.305
polymer_sequence=CYRRCQAFLVLV meas_value=0.127
polymer_sequence=FVVVVVWVSRGL meas_value=0.196
polymer_sequence=NLVCLDPFLVFV meas_value=0.472
polymer_sequence=LCSLPIVCCFFL meas_value=0.427
polymer_sequence=ACLLCVCVESRE meas_value=0.41
polymer_sequence=GSVHLTKERHLV meas_value=0.241
polymer_sequence=PPPLPFPTPPPS meas_value=0.646
polymer_sequence=LKTKKKKTNTQK meas_value=0.715
polymer_sequence=SVFSFCLCVGVV meas_value=0.253
polymer_sequence=VGVVVAIGLVRM meas_value=0.377
polymer_sequence=SPCLPRGVLFLA meas_value=0.297
polymer_sequence=IEVACLLTAFCD meas_value=0.266
polymer_sequence=MALAVRVVRCGA meas_value=0.233
polymer_sequence=KGSKGELGVHVG meas_value=0.634
polymer_sequence=VGGLGWCWVCMA meas_value=0.158
polymer_sequence=YPPLFLLMRGVL meas_value=0.175
polymer_sequence=YHDKLRAIEKFF meas_value=0.219
polymer_sequence=TLRINSPFYFLS meas_value=0.282
polymer_sequence=VIVQSWEIIRLN meas_value=0.105
polymer_sequence=GVLIFLSFQPIA meas_value=0.414
polymer_sequence=YGWILQLPCFVI meas_value=0.245
polymer_sequence=SGRAWRLRMHVI meas_value=0.269
polymer_sequence=VSLIYKTIKNRV meas_value=0.397
polymer_sequence=VFFFNALFCFFC meas_value=0.291
polymer_sequence=WLYPVFKISYCV meas_value=0.33
polymer_sequence=LFNRCCTILVVW meas_value=0.2
polymer_sequence=TTATLSFAICAV meas_value=0.325
polymer_sequence=VRRFNVLLYVRG meas_value=0.321
polymer_sequence=VMLFYVGSGVVS meas_value=0.556
polymer_sequence=PRPLLSIYLRHA meas_value=0.315
polymer_sequence=LCVGFISFCFCL meas_value=0.435
polymer_sequence=DLVGRETRMRLN meas_value=0.263
polymer_sequence=FFLLLVGFSVLG meas_value=0.222
polymer_sequence=RRGGNIVWYCLV meas_value=0.148
polymer_sequence=VCCSILFSAFLV meas_value=0.4
polymer_sequence=MALAVRVVLCGA meas_value=0.153
polymer_sequence=AYVAPRRALMCS meas_value=0.281
polymer_sequence=NCVDRFKGQKRM meas_value=0.491
polymer_sequence=RTMLSNRIKSFI meas_value=0.244
polymer_sequence=FLLVGLLIVGCG meas_value=0.206
polymer_sequence=PPVPRLLPVLAP meas_value=0.385
polymer_sequence=VSLHVFVFLLAS meas_value=0.239
polymer_sequence=LLTGRFRILLVV meas_value=0.0444
polymer_sequence=RRIILAGLFLIS meas_value=0.353
polymer_sequence=VSWWRGVYVVLF meas_value=0.357
polymer_sequence=FLYSVLLICKFI meas_value=0.0757
polymer_sequence=FKYRVPLVGVVK meas_value=0.25
polymer_sequence=FSFEGVLVPLLV meas_value=0.287
polymer_sequence=GLACNPQLLRWT meas_value=0.654
polymer_sequence=FMANRYICQKTL meas_value=0.0967
polymer_sequence=LIEMVTTRYRLC meas_value=0.128
polymer_sequence=GSLFANYNLKLF meas_value=0.106
polymer_sequence=PPSLPPLISFSP meas_value=0.662
polymer_sequence=LVLVVFCPLWFW meas_value=0.388
polymer_sequence=SINKLLILIKSI meas_value=0.0738
polymer_sequence=FSGRYFLLFRFL meas_value=0.0605
polymer_sequence=FFLLTCFLLPSV meas_value=0.341
polymer_sequence=SFSFRPCLLLFF meas_value=0.283
polymer_sequence=RWCLVWGGVWGV meas_value=0.5
polymer_sequence=CLHFLTWVRICS meas_value=0.0814
polymer_sequence=PRPETCHAVAVR meas_value=0.4
polymer_sequence=CFVLVVCIPVMV meas_value=0.207
polymer_sequence=PVLIFTWVIVCH meas_value=0.0533

====

Each entry below carries its recorded protein stability index.
Test system: Saccharomyces cerevisiae
PROCEDURE TEXT: protein stability index of tFT-peptide fusion (C-terminal peptide) (PSI (0-1 scale)); higher = more stable (slower turnover)
STUDY CONDITIONS: genetic background: wild type; temperature: 30 C
MEASUREMENT KIND: protein stability index

polymer_sequence=SGCWREVEVGFG meas_value=0.737
polymer_sequence=FPCRNFMVFFCF meas_value=0.29
polymer_sequence=KTKERARTISRV meas_value=0.721
polymer_sequence=VMLFYVGSGVVS meas_value=0.485
polymer_sequence=PRFPLPPHPSPR meas_value=0.704
polymer_sequence=VCTPCEFIRTQG meas_value=0.697
polymer_sequence=ENDKPITRKETQ meas_value=0.605
polymer_sequence=PFAHSATFLSLG meas_value=0.774
polymer_sequence=LPPLPPIAPPPP meas_value=0.813
polymer_sequence=LRVTPYTPRSYP meas_value=0.732
polymer_sequence=RCEGNGKRASTE meas_value=0.632
polymer_sequence=HLGTLYSSPLYR meas_value=0.663
polymer_sequence=VCCSILFSAFLV meas_value=0.475
polymer_sequence=DGSFCLLYMTIA meas_value=0.454
polymer_sequence=IADRLAAIPMRY meas_value=0.669
polymer_sequence=LPPLPPSPPPLP meas_value=0.685
polymer_sequence=GGGGGWAGENTR meas_value=0.715
polymer_sequence=PRPPSPPADPAP meas_value=0.744
polymer_sequence=PPSLPPPPLSQP meas_value=0.68
polymer_sequence=VDGLQYFMYISG meas_value=0.68
polymer_sequence=EKEWKRGTRKLD meas_value=0.702
polymer_sequence=RRSDTTQQSVSL meas_value=0.623

====

Each entry below carries its recorded protein stability index.
System: Saccharomyces cerevisiae
PROCEDURE TEXT: protein stability index of tFT-peptide fusion (C-terminal peptide) (PSI (0-1 scale)); higher = more stable (slower turnover)
STUDY CONDITIONS: genetic background: wild type; temperature: 30 C
MEASUREMENT KIND: protein stability index

polymer_sequence=PVFSHTDSRYRP meas_value=0.681
polymer_sequence=FPGSLVPVASVP meas_value=0.71
polymer_sequence=GRLLCFLFCCSS meas_value=0.603
polymer_sequence=NLTKTLNNDIIK meas_value=0.682
polymer_sequence=PHSLLPSSAPRN meas_value=0.696
polymer_sequence=GGRGAVSGIVRK meas_value=0.613
polymer_sequence=RITWRSKKGLVI meas_value=0.71
polymer_sequence=LQRVPTDAVPDC meas_value=0.707
polymer_sequence=RDRTVGLLEGTA meas_value=0.695

====

Test system: Saccharomyces cerevisiae
PROCEDURE TEXT: protein stability index of tFT-peptide fusion (C-terminal peptide) (PSI (0-1 scale)); higher = more stable (slower turnover)
STUDY CONDITIONS: genetic background: wild type; temperature: 37 C
Each entry below carries its recorded protein stability index.
MEASUREMENT KIND: protein stability index

polymer_sequence=DLVGRETRMRLN meas_value=0.526
polymer_sequence=VGVSCVVCVCGV meas_value=0.487
polymer_sequence=LLSPFLLMLLFL meas_value=0.317
polymer_sequence=GGYGAGLRSPLF meas_value=0.729
polymer_sequence=YYQVSQKIQRKQ meas_value=0.584
polymer_sequence=GVLIFLSFQPIA meas_value=0.556
polymer_sequence=ISAVLFFLYLSF meas_value=0.272
polymer_sequence=SFYVCVPVLWLV meas_value=0.146
polymer_sequence=MALAVRVVRCGA meas_value=0.379
polymer_sequence=EKHRRYAITKFI meas_value=0.407
polymer_sequence=VPGCLGRFLFFL meas_value=0.413
polymer_sequence=FLSRVVLVVLLV meas_value=0.339
polymer_sequence=SFCSFVFVTFVL meas_value=0.52
polymer_sequence=AYVAPRRALMCS meas_value=0.406
polymer_sequence=YVRHDKLILSFC meas_value=0.54
polymer_sequence=RVRRETRLRQIA meas_value=0.269
polymer_sequence=TGRLFVSLRVWY meas_value=0.442
polymer_sequence=FCFLLLSWAFWV meas_value=0.176
polymer_sequence=DGSFCLLYMTIA meas_value=0.492
polymer_sequence=PVALYPVQAYLT meas_value=0.265
polymer_sequence=TYKHIVRVNKCE meas_value=0.286
polymer_sequence=LVAGFVFIFFYR meas_value=0.46
polymer_sequence=PWEYSSQLVLVI meas_value=0.159
polymer_sequence=SVSQTSILDSRL meas_value=0.731
polymer_sequence=VARWVYALGLLC meas_value=0.377
polymer_sequence=YWGFHPCCAFGY meas_value=0.745
polymer_sequence=CMAWLSVLKTLF meas_value=0.615
polymer_sequence=AMRTIFFPAFVS meas_value=0.222
polymer_sequence=LLVRYYLFYVLV meas_value=0.391
polymer_sequence=WLCLGLVVGLFL meas_value=0.47
polymer_sequence=AYCGGRNKCTTE meas_value=0.712
polymer_sequence=SSLRATLLIRAV meas_value=0.517
polymer_sequence=LCSCMWISAIAI meas_value=0.533
polymer_sequence=FLLCRVFVLLRS meas_value=0.125
polymer_sequence=LRVVLVEWMCVV meas_value=0.358
polymer_sequence=SFVFLVRRWLFV meas_value=0.159
polymer_sequence=LVGWSWRGWFVV meas_value=0.112
polymer_sequence=SLCELRCLLRVG meas_value=0.606
polymer_sequence=AFFGIYLICFIV meas_value=0.146
polymer_sequence=GINHLSLKLRLF meas_value=0.288
polymer_sequence=RVWTTVFIIRAT meas_value=0.424

Hey, just so you know, these numbers are from the supplement of paper PMC10724198.
